Reference source for all entries: patent US20240270821A1

# SYSTEM_UNDER_TEST: hGLP-1R (Homo sapiens, UniProt P43220)
# Sequence (P43220 24-463): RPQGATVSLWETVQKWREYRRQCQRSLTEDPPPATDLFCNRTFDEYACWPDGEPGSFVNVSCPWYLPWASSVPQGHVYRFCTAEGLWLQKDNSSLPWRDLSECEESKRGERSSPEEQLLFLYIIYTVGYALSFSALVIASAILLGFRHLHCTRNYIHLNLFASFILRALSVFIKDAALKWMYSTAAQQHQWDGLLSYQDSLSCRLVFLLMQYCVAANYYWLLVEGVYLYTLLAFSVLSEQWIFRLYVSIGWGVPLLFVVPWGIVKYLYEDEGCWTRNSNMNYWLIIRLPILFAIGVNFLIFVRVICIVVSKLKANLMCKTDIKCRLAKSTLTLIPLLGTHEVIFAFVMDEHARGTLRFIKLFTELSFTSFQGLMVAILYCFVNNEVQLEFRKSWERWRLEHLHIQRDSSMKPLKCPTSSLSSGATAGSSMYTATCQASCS
# PROCEDURE_TEXT: Functional cAMP activity in the presence of 1% HSA
# Format: cell-based
# SETTINGS: read-out: cAMP Rel EC50, hGLP-1R
Starred links: 1 amine or outer side, 2 acyl side, 3 side chain; linkers in the order of their positions; H or OH if unused. Non-standard residues stand in square brackets, D forms with d. Groups on a side chain read outwards from the residue. No end group written: not given here. *: point of attachment. C20 diacid = O=C(O)CCCCCCCCCCCCCCCCCCC(=O)*; C18 diacid = O=C(O)CCCCCCCCCCCCCCCCC(=O)*; αMePhe(2-F) = C[C@](N)(Cc1ccccc1F)C(=O)O; γGlu = O=C(O)[C@H](CCC(=O)[*:2])N[*:1]; NMeY = CN[C@@H](Cc1ccc(O)cc1)C(=O)O; αMe4Pal = C[C@](N)(Cc1ccncc1)C(=O)O; αMeY = C[C@](N)(Cc1ccc(O)cc1)C(=O)O; αMeF = C[C@](N)(Cc1ccccc1)C(=O)O; 4Pal = N[C@@H](Cc1ccncc1)C(=O)O; αMeL = CC(C)C[C@](C)(N)C(=O)O; αMeS = C[C@](N)(CO)C(=O)O; Orn = NCCC[C@H](N)C(=O)O; Dap = NC[C@H](N)C(=O)O; AEEA = NCCOCCOCC(=O)O; Aib = CC(C)(N)C(=O)O
REPORTED_PROPERTY: EC50 (nM)
Use nM as the unit, but write only the number.

Report EC50, nothing else, for this substance: H-Y[Aib]QGTFTSDFS[Orn][αMeL]LDKK([AEEA-γGlu-C20 diacid])AQ[Aib]AFIEWLLAGGPSSGEPPPSGE-NH2 [Example 103] 482

Tell me its EC50 given H-Y[Aib]QGT[αMePhe(2-F)]TSD[4Pal][αMeS]I[αMeL]LD[Orn]K([AEEA-γGlu-γGlu-C18 diacid])AQ[αMe4Pal]EFI[dE][αMeY]LIEGGPSSGEPPPSGGGE-NH2 [Example 1181] as the entry. 48.2

Return value of EC50 for input H-Y[Aib]QGT[αMePhe(2-F)]TSD[4Pal][αMeS]I[αMeL]LD[Orn]K([γGlu-γGlu-C18 diacid])AQ[Aib][Orn]FI[dE][αMeY]LTEGGPSSGEPPPSGTGE-NH2 [Example 543] , no commentary. 32

Recall and state the measured EC50 for H-Y[Aib]QGTFTSDFS[Orn][αMeL]LDKK([γGlu-γGlu-C18 diacid])AQ[Aib]AFIEYLLE[Aib]GPSSGAPPPSGS-NH2 [Example 201] . 679

Fill in reported EC50 for this entry: H-Y[Aib]QGT[αMePhe(2-F)]TSD[4Pal][αMeS]I[αMeL]LD[Orn]K([γGlu-γGlu-C18 diacid])AQ[Aib][Orn]FI[dE][αMeY]LQEGGPSSGEPPPEGEEE-NH2 [Example 588] 34.1

Check the records and state EC50 for H-Y[Aib]QGTFTSD[4Pal]S[Orn][αMeL]LD[Orn]K([γGlu-γGlu-C18 diacid])AQ[αMe4Pal]EFIE[αMeY]LLEGGPSSGAPPPSGSEE-NH2 [Example 976] 2860

Using the record for H-Y[Aib]QGTFTSDFS[Dap][αMeL]LDKK([AEEA-γGlu-C18 diacid])AQ[Aib]AFIEYLLE[Aib]GPSSGAPPPSGS-NH2 [Example 134] , state its measured EC50. 549

Dear colleague, please send me the reported EC50 for H-Y[Aib]QGTFTSDFS[Orn][αMeL]LDKK([AEEA-γGlu-C20 diacid])AQ[Aib]AFIEYLLAGGPSSGAPPPSGD-NH2 [Example 81] when you can. 430

Determine from records and report EC50 for H-Y[Aib]QGTFTSD[4Pal]S[Orn][αMeL]LD[Orn]K([γGlu-γGlu-C18 diacid])AQ[αMe4Pal]AFIEYLIAGGPSSGEPPPSGTEE-NH2 [Example 985] 217

Please look at this substance and report its EC50: H-Y[Aib]QGT[αMePhe(2-F)]TSD[4Pal]SI[αMeL]LD[Orn]K([γGlu-γGlu-C18 diacid])AQ[αMe4Pal][Orn]FI[dE][αMeY]LIEGGPSSGEPPPEGE-NH2 [Example 683] 14.3

Fill in reported EC50 for this entry: H-Y[Aib]QGT[αMePhe(2-F)]TSD[4Pal][αMeS]I[αMeL]LD[Orn]K([γGlu-γGlu-C18 diacid])AA[Aib]EFI[dE][αMeY]LIEGGPSSGAPPPSGGGE-NH2 [Example 747] 20.3

In one line, give reported EC50 of the entry H-Y[Aib]QGT[αMePhe(2-F)]TSD[4Pal]SI[αMeL]LD[Orn]K([AEEA-γGlu-C18 diacid])AQ[Aib][Orn]FIEYLIEGGPSSGEPPPSEG-NH2 [Example 489] . 11.8

Provide only the value of recorded EC50 for H-Y[Aib]QGTFTSDFSK[αMeL]LDKK([γGlu-γGlu-C18 diacid])AQ[Aib]AFIEYLLEGGPSSGAPPPSEG-NH2 [Example 58] 20.7

// fetch EC50 given entry Y[Aib]QGTFTSDFS[Orn][αMeL]LDKK([AEEA-γGlu-C18 diacid])AQ[Aib]AFIEYLLE[dA]GPSSGEPPPSGE-NH2 [Example 135] 472

Consider the substance H-[NMeY][Aib]QGT[αMeF]TSDYSILLDKQAAK([AEEA-AEEA-γGlu-C20 diacid])AFVQWLIAGGPSSGEPPPSEG-NH2 [Example 301] . State its measured EC50. 82.4

Could you please provide reported EC50 for H-Y[Aib]QGTFTSD[4Pal]S[Orn][αMeL]LD[Orn]K([γGlu-γGlu-C18 diacid])AQ[αMe4Pal]AFIE[αMeY]LIEGGPSSGAPPPSGS-NH2 [Example 1013] ? Thanks! 137

Please list EC50 recorded for the substance H-Y[Aib]QGTFTSDFS[Orn][αMeL]LDKK([AEEA-γGlu-C18 diacid])AQ[Aib]AFIEYLLE[Aib]GHSSGAPPPSGE-NH2 [Example 247] 291

Kindly indicate its recorded EC50. Item: H-Y[Aib]QGTFTSD[4Pal]S[Orn][αMeL]LD[Orn]K([γGlu-γGlu-C18 diacid])AQ[Aib]AFIEYLLAGGPSSGAPPPSGSEE-NH2 [Example 1069] 1290

Note EC50 for the substance shown: H-Y[Aib]QGTFTSD[4Pal]SR[αMeL]LDKK([AEEA-γGlu-C18 diacid])AQ[αMe4Pal]AFIEYLIE[Aib]GPSSGAPPPSGS-NH2 [Example 809] 249

Tell me measured EC50 for H-Y[Aib]QGT[αMePhe(2-F)]TSDYSKLLDKQAQK([AEEA-γGlu-C20 diacid])QFIEYLIEGGPSSGEPPPSEG-NH2 [Example 309] please. 251

Tell us which EC50 value is on record for H-Y[Aib]QGTFTSDFS[Orn][αMeL]LDKK([AEEA-γGlu-C18 diacid])AQ[Aib]AFIEYLLEGGESSGAPPPSGS-NH2 [Example 145] 1480

Consider the substance H-Y[Aib]QGTFTSD[4Pal]S[Orn][αMeL]LD[Orn]K([γGlu-γGlu-C18 diacid])AQ[αMe4Pal]AFIEYLIAGGPSSGEPPPSGTE-NH2 [Example 984] and give its recorded EC50. 160

---

# SYSTEM_UNDER_TEST: hGIPR (Homo sapiens)
# Sequence (P48546 22-466): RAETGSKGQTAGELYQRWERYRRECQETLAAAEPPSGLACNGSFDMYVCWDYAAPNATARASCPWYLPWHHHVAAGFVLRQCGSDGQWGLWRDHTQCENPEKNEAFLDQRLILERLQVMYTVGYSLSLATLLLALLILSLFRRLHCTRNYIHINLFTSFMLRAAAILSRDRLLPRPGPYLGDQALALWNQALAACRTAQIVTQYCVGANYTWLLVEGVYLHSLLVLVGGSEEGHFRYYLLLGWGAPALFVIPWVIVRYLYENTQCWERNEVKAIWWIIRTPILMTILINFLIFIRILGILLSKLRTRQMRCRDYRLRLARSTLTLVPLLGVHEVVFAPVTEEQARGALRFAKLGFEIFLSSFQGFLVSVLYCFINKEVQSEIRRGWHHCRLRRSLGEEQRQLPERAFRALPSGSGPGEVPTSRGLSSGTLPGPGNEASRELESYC
# PROCEDURE_TEXT: Functional cAMP activation in the presence of 0.1% casein (no HSA);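 note: intracellular cAMP rise after 30 min at 37 °C read by HTRF against a standard curve, scaled between buffer alone (0%) and top control ligand concentration (100%), four-parameter fit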
# Assay type: cell-based
# SETTINGS: in the presence of 0.1% casein (no HSA); geometric mean; read-out: Relative cAMP EC50, hGIPR
Starred links: 1 amine or outer side, 2 acyl side, 3 side chain; linkers in the order of their positions; H or OH if unused. Non-standard residues stand in square brackets, D forms with d. Groups on a side chain read outwards from the residue. No end group written: not given here. *: point of attachment. C18 diacid = O=C(O)CCCCCCCCCCCCCCCCC(=O)*; γGlu = O=C(O)[C@H](CCC(=O)[*:2])N[*:1]; αMe4Pal = C[C@](N)(Cc1ccncc1)C(=O)O; αMeY = C[C@](N)(Cc1ccc(O)cc1)C(=O)O; 4Pal = N[C@@H](Cc1ccncc1)C(=O)O; αMeL = CC(C)C[C@](C)(N)C(=O)O; Orn = NCCC[C@H](N)C(=O)O; Aib = CC(C)(N)C(=O)O
For each record, write down the corresponding EC50.
Expressed in nM, but write only the number.

Tell me measured EC50 for Y[Aib]QGTFTSD[4Pal]SQ[αMeL]LDKK([dE-γGlu-dE-C18 diacid])AQ[αMe4Pal]AFIEYLIE[Aib]GPSSGAPPPSGSEE-NH2 [Example 931] please. 0.256

Report measured EC50; entry is H-Y[Aib]QGTFTSD[4Pal]S[Orn][αMeL]LD[Orn]K([γGlu-γGlu-C18 diacid])AQ[Aib]AFIE[αMeY]LLEGGPSSGAPPPSGSEE-NH2 [Example 1064] 0.556

Please supply the value of reported EC50 for the item Y[Aib]QGTFTSD[4Pal]SQ[αMeL]LD[Orn]K([dE-γGlu-C18 diacid])AQ[αMe4Pal]QFIE[αMeY]LIAGGPSSGAPPPSGSEEE-NH2 [Example 1081] 0.105
